Tested on: COLO 205
assay-info: NCI tumour cell line growth inhibition, 48 h
Active and inactive are the calls of the source. No stated cut-off is given here; in the data, active = GI50 up to about 1.1 µM and inactive = higher.
Pick one: active, inactive

CCC(C(=O)O)c1ccc(OCc2ccccc2)cc1 (stereo unspecified) ... inactive

*Q* In this assay, the call recorded for `Cc1ccc(NC(=S)N/N=C(/c2ccccc2)c2ccccn2)cc1` was what?
*A* active

*Q* In this assay, the call recorded for COC(=O)/C=C/[C@@H]1[C@H](C)N1S(=O)(=O)c1ccc(C)cc1 (stereo partly specified) was what?
*A* inactive

*Q* In this assay, the call recorded for CNC(=O)OC(C)CN1c2ccccc2Sc2ccccc21 (stereo unspecified) was what?
*A* inactive

*Q* In this assay, the call recorded for O=C(c1ccccc1)c1ccc2c(c1)N=C(c1ccc(Cl)c(Cl)c1)CC(c1ccc3ccccc3c1)N2 (stereo unspecified) was what?
*A* inactive

*Q* In this assay, the call recorded for COc1cc(C2SCC(=O)N2c2ccc(-n3c(-c4ccccc4)nc4ccccc4c3=O)cc2)cc(OC)c1OC (stereo unspecified) was what?
*A* inactive

*Q* In this assay, the call recorded for O=C1NNC2NC(=O)C3(NN2C1=O)c1ccccc1-c1ccccc13 (stereo unspecified) was what?
*A* inactive

*Q* In this assay, the call recorded for C1=C(c2ccccc2)O[C@H](COCc2ccccc2)C(OCc2ccccc2)[C@@H]1OCc1ccccc1 (stereo partly specified) was what?
*A* inactive

*Q* In this assay, the call recorded for CN(Cc1cnc2nc(N)nc(N)c2n1)c1ccc(C(=O)NC(CCC(=O)NC(P(=O)(O)O)P(=O)(O)O)C(=O)O)cc1 (stereo unspecified) was what?
*A* inactive

*Q* In this assay, the call recorded for `Cc1ccc(-c2cc(-c3ccccc3)nc(N)n2)c(O)c1` was what?
*A* inactive

*Q* In this assay, the call recorded for `CCOC(=O)N[C@H]1CCc2cc(O)c(OC)c(OC)c2-c2ccc(SC)c(=O)cc21` was what?
*A* active

*Q* In this assay, the call recorded for `CCc1n[nH]c(=O)n1/N=C/c1ccc(C)cc1` was what?
*A* inactive

*Q* In this assay, the call recorded for O[C@H]1[C@H](O)[C@@H](O)CN2CC[C@H](O)[C@H]12 [CASTANOSPERMINE] was what?
*A* inactive

*Q* In this assay, the call recorded for `COc1ccc(CC#N)c(OCc2ccccc2)c1` was what?
*A* inactive

*Q* In this assay, the call recorded for `CCOC(=O)N1c2c(ccn2C)-c2ccn(C)c2N1C(=O)OCC` was what?
*A* inactive

*Q* In this assay, the call recorded for `COc1ccc(C[C@@H]2OC3(C=CC(=O)C=C3)O[C@H]2Cc2ccc(OC)cc2)cc1` was what?
*A* inactive

###

System: EKVX
assay-info: NCI tumour cell line growth inhibition, 48 h
Active and inactive are the calls of the source. Rule as the data show it: active = GI50 up to about 1.1 µM and inactive = higher.
measured-metric: GI50

These recorded examples may help you get a feel for the data.
O[C@H]1[C@H](O)[C@@H](O)CN2CC[C@H](O)[C@H]12 [CASTANOSPERMINE] ... > 100 µM (inactive)
C=CC(COC(=O)C(C)(C)OC(C)=O)c1ccc(OC(=O)C(C)C)c(OC)c1 (stereo not given) ... 12.7 µM (inactive)
COc1ccc2oc(C(=O)N3CC(CCl)c4ccc([N+](=O)[O-])cc43)cc2c1 (stereo not given) ... 15.8 µM (inactive)
FC(F)(F)c1ccccc1C1SCc2nc3ccccc3n21 (stereo not given) ... 41.1 µM (inactive)
S=c1c2cn[nH]c2nc2scc(-c3ccc(Cl)cc3)n12 ... 17.3 µM (inactive)
COC(=O)C(CNC(=O)/C=C/c1ccc(OC)c(OC)c1)NC(=O)/C=C/c1ccc(OC)c(OC)c1 (stereo not given) ... > 100 µM (inactive)
CC(O)CN1c2ccccc2Sc2ccccc21 (stereo not given) ... > 100 µM (inactive)
NS(=O)(=O)c1ccc(NC(=O)N/N=C/c2ccccc2[N+](=O)[O-])cc1 ... 61 µM (inactive)
Cc1ccc(C(=O)Cc2nc3ncccc3[nH]c2=O)cc1 ... 33.2 µM (inactive)

Attention now shifts to the item below.
*Q* Using the record for CC(=O)Nc1ccc(C2CC(c3ccc([N+](=O)[O-])cc3)=Nc3ccccc3S2)cc1 (stereo not given) , report its GI50.
*A* 36.8 µM (inactive)
